- Tgt: recombinant human plasminogen activator inhibitor-1 (PAI-1) (Homo sapiens)
- Construct: purchased Molecular Innovations, Royal Oak, Mich
- Sequence (P05121 24-402): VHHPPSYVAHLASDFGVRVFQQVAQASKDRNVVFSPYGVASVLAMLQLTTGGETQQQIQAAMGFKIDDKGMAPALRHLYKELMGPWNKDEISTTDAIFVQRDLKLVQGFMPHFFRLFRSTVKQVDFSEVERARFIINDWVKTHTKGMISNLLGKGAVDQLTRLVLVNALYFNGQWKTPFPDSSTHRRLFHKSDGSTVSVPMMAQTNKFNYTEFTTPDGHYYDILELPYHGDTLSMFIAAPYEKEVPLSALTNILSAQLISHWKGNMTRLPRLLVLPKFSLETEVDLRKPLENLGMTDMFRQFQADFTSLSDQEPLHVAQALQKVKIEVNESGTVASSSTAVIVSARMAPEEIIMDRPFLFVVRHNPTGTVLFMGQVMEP
- Experimental Protocol: Primary Screen for the PAI-1 Inhibition (residual tPA activity, Spectrozyme-tPA chromogenic substrate)
- Assay type: biochemical
- Condition Description: 25 μM test compound

{"columns": ["Molecule", "inhibition at 25 µM (%)"],
 "data": [
  ["O=C(O)C(=O)c1cn(Cc2ccccc2)c2ccc(-c3ccccc3)cc12 [Example 24]", 47],
  ["O=C(O)C(=O)c1cn(Cc2ccccc2)c2cccc(-c3ccc(OC(F)(F)F)cc3)c12 [Example 20]", 14],
  ["CC(C)(C)c1ccc(Cn2cc(C(=O)C(=O)O)c3cc(-c4ccc(Cl)cc4)ccc32)cc1 [Example 38]", 14],
  ["CCn1cc(C(=O)C(=O)O)c2ccc(-c3ccc(C(F)(F)F)cc3)cc21 [Example 4]", 16]
]}
